# reported IC50; entries follow
- System: 922993-354-T-J3-PDC complex spheroid viability
- procedure-text: Anticancer human tumor 922993-354-T-J3-PDC patient-derived endometrial carcinoma cell line growth inhibition [POLQ]
- conditions: curve of first compound; second compound 3.16 µM

Solved cases (3 shown):
molecule	IC50
O=C(c1cc(Cc2n[nH]c(=O)c3ccccc23)ccc1F)N1CCN(C(=O)C2CC2)CC1 + Nc1ccc(C#CCN(C(=O)Cc2ncc(C(F)(F)F)cc2C(F)(F)F)c2ccc(F)cc2)nn1	> 10 µM
O=C(c1cc(Cc2n[nH]c(=O)c3ccccc23)ccc1F)N1CCN(C(=O)C2CC2)CC1 + Cc1cccc(N(C)C(=O)C2C(O)CCN2c2nc(C)cc(C(F)(F)F)c2C#N)c1	> 10 µM
CC(C)n1c(=O)n(C)c2cnc3cc(F)c(-c4ccc(OCCCN5CCCCC5)nc4)cc3c21 + Nc1ccc(C#CCN(C(=O)Cc2ncc(C(F)(F)F)cc2C(F)(F)F)c2ccc(F)cc2)nn1	> 10 µM

Turning now to a further record.
// fetch IC50 for COc1cccc2c1C(=O)c1c(O)c3c(c(O)c1C2=O)CC(O)(C(=O)CO)CC3OC1CC(N)C(O)C(C)O1 (centres undefined) + Nc1ccc(C#CCN(C(=O)Cc2ncc(C(F)(F)F)cc2C(F)(F)F)c2ccc(F)cc2)nn1 ; system: 922993-354-T-J3-PDC complex spheroid viability
2.31 µM

----------
- Test system: 922993-354-T-J3-PDC complex spheroid viability
- procedure-text: Anticancer human tumor 922993-354-T-J3-PDC cell line growth inhibition [POLQ];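 note: spheroids exposed to the agents for one week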;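 for viability, T/C: 100% = DMSO vehicle control wells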
- conditions: second compound 3.16 µM; first compound 1 µM; stronger effect = lower value
As shown below, each of these molecules has a reported viability, T/C value.

Consider the following illustrative entries.
molecule	viability, T/C
CC1COCCN1c1cc(C2(S(C)(=N)=O)CC2)nc(-c2ccnc3[nH]ccc23)n1 (stereo not drawn) + COC1C(OC(N)=O)C(O)C(Oc2ccc3c(O)c(NC(=O)c4ccc(O)c(CC=C(C)C)c4)c(=O)oc3c2C)OC1(C)C	85.7%
C=CC(=O)N1CCN(c2nc(=O)n(-c3c(C)ccnc3C(C)C)c3nc(-c4c(O)cccc4F)c(F)cc23)C(C)C1 (stereo not drawn) + Cc1cccc(N(C)C(=O)C2C(O)CCN2c2nc(C)cc(C(F)(F)F)c2C#N)c1	98.9%

We next turn to a different molecule, shown below.
Hello, please tell me recorded viability, T/C for this one: C#Cc1c(F)ccc2cc(O)cc(-c3ncc4c(N5CC6CCC(C5)N6)nc(OCC56CCCN5CC(F)C6)nc4c3F)c12 (stereo not drawn) + Nc1ccc(C#CCN(C(=O)Cc2ncc(C(F)(F)F)cc2C(F)(F)F)c2ccc(F)cc2)nn1
104%

----------
- Test system: 922993-354-T-J3-PDC complex spheroid viability
- procedure-text: Anticancer human tumor 922993-354-T-J3-PDC cell line growth inhibition [POLQ];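 note: spheroids exposed to the agents for one week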;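 for viability, T/C: 100% = DMSO vehicle control wells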
- conditions: second compound 0.1 µM; first compound 10 µM; stronger effect = lower value
assay-metric: viability, T/C (%)
Numbers only; they are read as %.

compound	viability, T/C / %
O=c1[nH]cc(F)c(=O)[nH]1 + Cc1cccc(N(C)C(=O)C2C(O)CCN2c2nc(C)cc(C(F)(F)F)c2C#N)c1	17.5
COc1cc(C2c3cc4c(cc3C(OC3OC5COC(C)OC5C(O)C3O)C3COC(=O)C23)OCO4)cc(OC)c1O (stereo not given) + Nc1ccc(C#CCN(C(=O)Cc2ncc(C(F)(F)F)cc2C(F)(F)F)c2ccc(F)cc2)nn1	71.4
CCCS(=O)(=O)Nc1ccc(F)c(C(=O)c2c[nH]c3ncc(-c4ccc(Cl)cc4)cc23)c1F + Cc1cccc(N(C)C(=O)C2C(O)CCN2c2nc(C)cc(C(F)(F)F)c2C#N)c1	90.1
C#Cc1c(F)ccc2cc(O)cc(-c3ncc4c(N5CC6CCC(C5)N6)nc(OCC56CCCN5CC(F)C6)nc4c3F)c12 (stereo not given) + Nc1ccc(C#CCN(C(=O)Cc2ncc(C(F)(F)F)cc2C(F)(F)F)c2ccc(F)cc2)nn1	102

Name the value of viability, T/C reported for COc1cccc2c1C(=O)c1c(O)c3c(c(O)c1C2=O)CC(O)(C(=O)CO)CC3OC1CC(N)C(O)C(C)O1 (stereo not given) + Cc1cccc(N(C)C(=O)C2C(O)CCN2c2nc(C)cc(C(F)(F)F)c2C#N)c1 when tested on 922993-354-T-J3-PDC complex spheroid viability.
11.6

----------
- Test system: 922993-354-T-J3-PDC complex spheroid viability
- procedure-text: Anticancer human tumor 922993-354-T-J3-PDC cell line growth inhibition [POLQ];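 note: spheroids exposed to the agents for one week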;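 for viability, T/C: 100% = DMSO vehicle control wells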
- conditions: second compound 0.1 µM; first compound 0.01 µM; stronger effect = lower value
Below, each entry is listed alongside its reported viability, T/C.
Give just the number in %; leave the unit off.

Completed entries (count: 5):
molecule	measured-result
CC[C@@]1(O)C(=O)OCc2c1cc1n(c2=O)Cc2cc3c(CN(C)C)c(O)ccc3nc2-1 + COC1C(OC(N)=O)C(O)C(Oc2ccc3c(O)c(NC(=O)c4ccc(O)c(CC=C(C)C)c4)c(=O)oc3c2C)OC1(C)C	98.8
Cn1ncnc1[C@H]1c2n[nH]c(=O)c3cc(F)cc(c23)N[C@@H]1c1ccc(F)cc1 + COC1C(OC(N)=O)C(O)C(Oc2ccc3c(O)c(NC(=O)c4ccc(O)c(CC=C(C)C)c4)c(=O)oc3c2C)OC1(C)C	99.9
CCc1c2c(nc3ccc(O)cc13)-c1cc3c(c(=O)n1C2)COC(=O)[C@]3(O)CC + Nc1ccc(C#CCN(C(=O)Cc2ncc(C(F)(F)F)cc2C(F)(F)F)c2ccc(F)cc2)nn1	88.8
CCc1c2c(nc3ccc(O)cc13)-c1cc3c(c(=O)n1C2)COC(=O)[C@]3(O)CC + COC1C(OC(N)=O)C(O)C(Oc2ccc3c(O)c(NC(=O)c4ccc(O)c(CC=C(C)C)c4)c(=O)oc3c2C)OC1(C)C	42.6
COc1cccc(OCCCN)c1-c1cc(Nc2cnc(C#N)cn2)n[nH]1 + COC1C(OC(N)=O)C(O)C(Oc2ccc3c(O)c(NC(=O)c4ccc(O)c(CC=C(C)C)c4)c(=O)oc3c2C)OC1(C)C	96.5

Report measured viability, T/C; entry is CC[C@@]1(O)C(=O)OCc2c1cc1n(c2=O)Cc2cc3c(CN(C)C)c(O)ccc3nc2-1 + Nc1ccc(C#CCN(C(=O)Cc2ncc(C(F)(F)F)cc2C(F)(F)F)c2ccc(F)cc2)nn1
102

Report viability, T/C, nothing else, for this molecule: COc1cccc(OCCCN)c1-c1cc(Nc2cnc(C#N)cn2)n[nH]1 + Cc1cccc(N(C)C(=O)C2C(O)CCN2c2nc(C)cc(C(F)(F)F)c2C#N)c1
104

Provide measured viability, T/C value, entry: COc1cccc(OCCCN)c1-c1cc(Nc2cnc(C#N)cn2)n[nH]1 + Nc1ccc(C#CCN(C(=O)Cc2ncc(C(F)(F)F)cc2C(F)(F)F)c2ccc(F)cc2)nn1
99

Fill in reported viability, T/C for this entry: Cn1ncnc1[C@H]1c2n[nH]c(=O)c3cc(F)cc(c23)N[C@@H]1c1ccc(F)cc1 + Cc1cccc(N(C)C(=O)C2C(O)CCN2c2nc(C)cc(C(F)(F)F)c2C#N)c1
94.4

Determine its reported viability, T/C: CCc1c2c(nc3ccc(O)cc13)-c1cc3c(c(=O)n1C2)COC(=O)[C@]3(O)CC + Cc1cccc(N(C)C(=O)C2C(O)CCN2c2nc(C)cc(C(F)(F)F)c2C#N)c1
63.5

Let me know recorded viability, T/C for Cn1ncnc1[C@H]1c2n[nH]c(=O)c3cc(F)cc(c23)N[C@@H]1c1ccc(F)cc1 + Nc1ccc(C#CCN(C(=O)Cc2ncc(C(F)(F)F)cc2C(F)(F)F)c2ccc(F)cc2)nn1 , thanks.
98.1

----------
- Test system: 922993-354-T-J3-PDC complex spheroid viability
- procedure-text: Anticancer human tumor 922993-354-T-J3-PDC cell line growth inhibition [POLQ]; active = viability on the fitted dose curve at most 10% of control; inactive = the rest;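 note: spheroids exposed to the agents for one week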
- conditions: second compound 0.1 µM; first compound 1 µM
Thanks in advance; please answer with one of these: active, inactive

Use the examples below as a reference point.
compound	class-assignment
CCc1cc2c(N3CCc4c(cc(Cn5ccnc5)cc4-c4cn(C)nc4C(F)(F)F)C3=O)ccnc2c(OC)n1 + Nc1ccc(C#CCN(C(=O)Cc2ncc(C(F)(F)F)cc2C(F)(F)F)c2ccc(F)cc2)nn1	inactive
CC1COCCN1c1cc(C2(O)CC3CCC(C2)O3)c2cnn(-c3ccn[nH]3)c2n1 (stereo not given) + Nc1ccc(C#CCN(C(=O)Cc2ncc(C(F)(F)F)cc2C(F)(F)F)c2ccc(F)cc2)nn1	inactive
COc1cc(C2c3cc4c(cc3C(OC3OC5COC(C)OC5C(O)C3O)C3COC(=O)C23)OCO4)cc(OC)c1O (stereo not given) + Cc1cccc(N(C)C(=O)C2C(O)CCN2c2nc(C)cc(C(F)(F)F)c2C#N)c1	inactive

Tell me the recorded outcome of this test for COc1ccc([C@@H](O)c2cc(-c3ncnc4cc(N5CCOCC5)ccc34)c(F)cc2Cl)nn1 + Nc1ccc(C#CCN(C(=O)Cc2ncc(C(F)(F)F)cc2C(F)(F)F)c2ccc(F)cc2)nn1 .
inactive

Each compound tested received a call. Report the one for Nc1ccn(C2OC(CO)C(O)C2(F)F)c(=O)n1 (stereo not given) + COC1C(OC(N)=O)C(O)C(Oc2ccc3c(O)c(NC(=O)c4ccc(O)c(CC=C(C)C)c4)c(=O)oc3c2C)OC1(C)C .
active

Hi, do you know how O=c1[nH]cc(F)c(=O)[nH]1 + COC1C(OC(N)=O)C(O)C(Oc2ccc3c(O)c(NC(=O)c4ccc(O)c(CC=C(C)C)c4)c(=O)oc3c2C)OC1(C)C came out in this test?
inactive

Fill in: this test's call for C=CC(=O)N1CCN(c2nc(=O)n(-c3c(C)ccnc3C(C)C)c3nc(-c4c(O)cccc4F)c(F)cc23)C(C)C1 (stereo not given) + COC1C(OC(N)=O)C(O)C(Oc2ccc3c(O)c(NC(=O)c4ccc(O)c(CC=C(C)C)c4)c(=O)oc3c2C)OC1(C)C is ___
inactive

Could you kindly confirm the outcome this assay logged for CC(C)n1c(=O)n(C)c2cnc3cc(F)c(-c4ccc(OCCCN5CCCCC5)nc4)cc3c21 + COC1C(OC(N)=O)C(O)C(Oc2ccc3c(O)c(NC(=O)c4ccc(O)c(CC=C(C)C)c4)c(=O)oc3c2C)OC1(C)C ?
inactive
